The measurements presented in this section are drawn from PubChem BioAssay AID1778.

assay_system: Kappa-type opioid receptor (Homo sapiens) (UniProt P41145)
Sequence (P41145 whole entry, looked up): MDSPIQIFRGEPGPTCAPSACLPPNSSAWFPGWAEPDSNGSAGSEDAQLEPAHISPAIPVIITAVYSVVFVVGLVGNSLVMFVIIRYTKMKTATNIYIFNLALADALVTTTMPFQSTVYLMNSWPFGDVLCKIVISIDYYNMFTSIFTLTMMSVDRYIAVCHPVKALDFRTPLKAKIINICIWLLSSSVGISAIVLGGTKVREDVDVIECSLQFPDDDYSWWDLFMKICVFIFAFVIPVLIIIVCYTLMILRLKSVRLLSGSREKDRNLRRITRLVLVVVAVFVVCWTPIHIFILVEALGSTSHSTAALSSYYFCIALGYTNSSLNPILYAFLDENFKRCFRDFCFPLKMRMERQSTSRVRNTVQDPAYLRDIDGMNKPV
assay_name: kappa opioid receptor blockers – cell-based, luminescence, uHTS (AID 1778)
test_context: KOR beta-arrestin recruitment, antagonist mode, active compounds read high; at 10 µM unless noted
Among all 290,000 compounds or so, about 260 (0.09%) were called active. The sample as a whole holds a higher share of actives than the screen did. Results with a measured potency or affinity are listed apart.
Provide the recorded inhibition for the entries that follow.

Please give the measured inhibition for this molecule: `COCCn1c(SCC(=O)N2CCCC2)nnc1-c1ccco1`
10.6% (inactive)

Please give the measured inhibition for this molecule: `S=c1sc2c(N3CCN(Cc4ccccc4)CC3)ncnc2n1-c1ccccc1`
-18% (inactive)

Please give the measured inhibition for this molecule: `CCN(CC)CC#Cc1ccc(C)cc1`
-6.4% (inactive)

Please give the measured inhibition for this molecule: `O=C(OCCCOc1ccc(F)cc1)c1ccc(O)cc1O`
-20.5% (inactive)

Please give the measured inhibition for this molecule: `Cc1c(N=c2scc(-c3ccccc3)n2C)c(=O)n(-c2ccccc2)n1C`
16.6% (inactive)

Please give the measured inhibition for this molecule: `CCOC(=O)c1c(CN2CCCCC2)n(C)c2ccc(OC)c(S(=O)(=O)c3ccccc3)c12`
4.2% (inactive)

Please give the measured inhibition for this molecule: `Cc1onc(-c2ccccc2)c1C(=O)N=C(N)c1ccc(C(F)(F)F)cc1`
19.1% (inactive)

Please give the measured inhibition for this molecule: `S=c1sc2c(N3CCOCC3)ncnc2n1-c1ccccc1`
-30.9% (inactive)

Please give the measured inhibition for this molecule: `COc1cccc(NC(=O)C2CCN(C(=O)NC3CCCCC3)CC2)c1`
-51.6% (inactive)

Please give the measured inhibition for this molecule: `C/C(=N\NC(=O)COc1ccccc1-c1ccccc1)c1ccc(O)cc1O`
-14.4% (inactive)

Please give the measured inhibition for this molecule: `Fc1ccccc1-c1nc(-c2cnccc2C(F)(F)F)no1`
11.7% (inactive)

Please give the measured inhibition for this molecule: `COC(=O)c1c(NC(=O)CN2CCN(c3ncccn3)CC2)sc(C(N)=O)c1C`
-4.1% (inactive)

Please give the measured inhibition for this molecule: `C=CCNC(=S)N/N=C(\C)c1cccnc1`
3.5% (inactive)

Please give the measured inhibition for this molecule: `O=[N+]([O-])c1ccc(Sc2cccc[n+]2[O-])c2nonc12`
93% (active)

Please give the measured inhibition for this molecule: `C/C(=N\NC(=O)COc1ccccc1-c1ccccc1)c1cccnc1`
-42.8% (inactive)

Please give the measured inhibition for this molecule: `Cn1ccnc1Sc1cc(NCCCO)c([N+](=O)[O-])c2nonc12`
41.5% (inactive)

Please give the measured inhibition for this molecule: `Cc1nc(Cl)c(Cl)n1CCOc1ccccc1`
-4.6% (inactive)

Please give the measured inhibition for this molecule: `O=C(COc1ccc2c(C(F)(F)F)cc(=O)oc2c1)NCc1cccs1`
-40.4% (inactive)

Please give the measured inhibition for this molecule: `C/C(=N\NC(=O)Cc1ccc(Cl)cc1)c1ccccc1O`
-29.7% [at 20 µM] (inactive)

Please give the measured inhibition for this molecule: CC(C)(C)C1CCc2c(sc(NC(=O)c3cccs3)c2C(N)=O)C1 (stereo not drawn)
-55.5% (inactive)

Please give the measured inhibition for this molecule: Cc1ccc(CN(C(=O)Cn2nnc3ccccc32)C(C(=O)NCc2ccco2)c2cccs2)cc1 (stereo not drawn)
17.9% (inactive)

Please give the measured inhibition for this molecule: Cc1cccc(C)c1NC(=O)C(c1cccs1)N(Cc1ccco1)C(=O)Cn1nnc2ccccc21 (stereo not drawn)
53.4% (active)

Please give the measured inhibition for this molecule: CC1CC2=C(NC(=S)NC2c2cccc(F)c2)/C(=C/c2cccc(F)c2)C1 (stereo not drawn)
4.5% (inactive)
